Data provenance: the RNAGym collection of RNA variant scans (doi:10.1002/anie.201605470)

B1: Osa-1-4 twister ribozyme (parent)
chain: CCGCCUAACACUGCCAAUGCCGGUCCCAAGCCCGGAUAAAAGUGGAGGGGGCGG

variants of: B1; test: self-cleavage, relative activity (ratio to wild type); higher = more cleavage; co-transcriptional
Lab note: compare self-cleavage against 0.04. Equal or greater, write Criterion met. Smaller, write Criterion not met.

## Task Textbook exercise: given the entry CCGCCUAACCCUGCCAAUGCGGGUCCCAAGCCCGGAUAAAAGUGGAGGGGGCGG [A10C C21G] , state whether its self-cleavage is greater than or equal to 0.04.
## Result Criterion not met

## Task Item: CCGCCUAACACUCCCAAUGCCGGUCCCAAGCCCGGAUAGAAGUGGAGGGGGCGG [A39G G13C]
## Result Criterion not met

## Task Item: CCGCCUAACACUGCCAAUGCCGGUCCCAAGCCCUGAUAAAAGUGGAGCGGGCGG [G34U G48C]
## Result Criterion met

## Task Item: CCGCCUAACACUGACAAUGCCGGUCCCAAGCCGGGAUAAAAGUGGAGGGGGCGG [C14A C33G]
## Result Criterion not met

## Task Item: CCGCCUAACACUGCCAAUGCCGGUCCUAAGCCCGGAUAAAAGUGGAGUGGGCGG [C27U G48U]
## Result Criterion not met

## Task Item: CCGCCUAACACUGCCGAUGCCGGUCCCAAGCCCGGAUAAAAGUGGAGGGGGCCG [A16G G53C]
## Result Criterion met

## Task Item: CCGCCUAACAAUGCCAAUGCCGGUCCCAAGCCCGGUUAAAAGUGGAGGGGGCGG [A36U C11A]
## Result Criterion met

## Task Item: CCGCCUAACACUGCCAGUGCCGGUCCCAAGCCCGGAUAAAAGUGGAGGGGGCGU [A17G G54U]
## Result Criterion met

## Task Item: CCGCCUAACACUGCCAAUACCGGUCCCAAGCCCGGAUAAAAGUGGAGGGUGCGG [G19A G50U]
## Result Criterion met

## Task Item: CCGCCUAACACUGCCAAUGCCGGUCCCAAGCCCGGUUCAAAGUGGAGGGGGCGG [A36U A38C]
## Result Criterion met
